Measured On: T1, Cyno CD33 full length (cynomolgus monkey)
T1 construct: Stably expressed on HEK293F cells by lentiviral transduction; also called Cyno CD33 (on HEK293F cells)
Test Summary: flow cytometry on HEK293F cells expressing cyno CD33
Measure: mean fluorescence intensity at 0.6 nM mAb (MFI)
Report as a plain number; the unit MFI is understood.

Just so you know, measured mean fluorescence intensity at 0.6 nM mAb for C33B915 (antibody, V domains shown, OMNIMouse mAb; HC C33H255, LC C33L121 (same IDs as C33B907); also called C33F553) VH: EVQLVESGGGLVQPGRSLRLSCAASGFTFDDYAMHWVRQVPGEGLEWVSGISWNGGDMVYADSVKGRFTISRDNAKNSLYLQMNSLRPEDTALYYCVKDMPYFDFLTGSDYYYYGMDVWGQGTTVTVSS VL: SYELTQPPSVSVSPGQTASITCSGDNLGNEHVCWYHQKPGQSPVLVIYQNNKRPSGIPERFSGSNSGNTATLSISGTQATDEADYYCQAWDSTTAVFGGGTKLTVLG came out at 36200

The measured values listed here are drawn from patent US20190382481A1.
